Source: the supplement of paper PMC12645437

# targetOrTestSystem: T1, CRBN, Q96SW2;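 note: pooled lentiviral library of zinc finger degron-EGFP fusions in mCherry-positive Jurkat cells, FACS-sorted after compound exposure, with degron abundance counted by next-generation sequencing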
# T1 chain: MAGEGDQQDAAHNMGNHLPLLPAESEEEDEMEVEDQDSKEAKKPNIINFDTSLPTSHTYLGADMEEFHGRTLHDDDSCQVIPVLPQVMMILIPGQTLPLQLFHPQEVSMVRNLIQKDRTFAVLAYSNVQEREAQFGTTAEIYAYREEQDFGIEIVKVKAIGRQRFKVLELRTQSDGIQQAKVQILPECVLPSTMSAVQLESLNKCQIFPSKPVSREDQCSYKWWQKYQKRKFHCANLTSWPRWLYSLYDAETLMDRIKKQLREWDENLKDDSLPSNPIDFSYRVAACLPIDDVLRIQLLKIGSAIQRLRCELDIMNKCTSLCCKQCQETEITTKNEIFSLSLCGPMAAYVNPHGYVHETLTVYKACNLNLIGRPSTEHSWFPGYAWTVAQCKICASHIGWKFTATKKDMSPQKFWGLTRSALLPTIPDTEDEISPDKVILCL
# assayDetails: log2 fold change of degron read counts, EGFP-low vs EGFP+ sorted cells (limma voom), compound-induced degradation; higher = more compound-induced degradation of the degron-EGFP fusion; degrons are variants of IKZF1/3 zinc finger 2; compound dose not given here
# assaySetup: Jurkat; 18 h; compound: compound 22 (5-morpholino-thalidomide)
The full ranking holds about 8,300 sequences; the median of “log2 fold change of degron read counts, EGFP-low vs EGFP+ sorted cells (limma voom), compound-induced degradation” is about -1.1, and the highest 2% start at about 3.2. The sample as a whole holds a higher share of the highest values than the screen did.
endpointName: log2 fold change of degron read counts
Note: the reply should be a number with no unit written.

In [3]: df
Out[3]:
                               sequencedata  recordedvalue
0  FYCNICGAFFTQKGNLLRHIKL [46F_47Y_49N_50I_52G_53A_54F_55F_67L_, Q9UKT9]           1.41
1  FYCPICGRMFTQKGNLLRHIKL [46F_47Y_49P_50I_52G_53R_54M_55F_67L_, Q9UKT9]          -1.23
2  FNCEVCGAQFTQKGNLLRHIKL [46F_47N_49E_50V_52G_53A_54Q_55F_67L_, Q9UKT9]           1.07
3  FFCEICGHSFTQKGNLLRHIKL [46F_47F_49E_50I_52G_53H_54S_55F_67L_, Q9UKT9]          -2.19
4  FICEVCGAQFTQKGNLLRHIKL [46F_47I_49E_50V_52G_53A_54Q_55F_67L_, Q9UKT9]            2.8

INPUT: Give the reported log2 fold change of degron read counts for this sequence. FRCEICGASFTQKGNLLRHIKL [46F_47R_49E_50I_52G_53A_54S_55F_67L_, Q9UKT9]
OUTPUT: 1.52

INPUT: Give the reported log2 fold change of degron read counts for this sequence. FWCEVCGAQFTQKGNLLRHIKL [46F_47W_49E_50V_52G_53A_54Q_55F_67L_, Q9UKT9]
OUTPUT: 3.79

INPUT: Give the reported log2 fold change of degron read counts for this sequence. FRCEVCGAQFTQKGNLLRHIKL [46F_47R_49E_50V_52G_53A_54Q_55F_67L_, Q9UKT9]
OUTPUT: 0.339

INPUT: Give the reported log2 fold change of degron read counts for this sequence. FFCEICGASFTQKGNLLRHIKL [46F_47F_49E_50I_52G_53A_54S_55F_67L_, Q9UKT9]
OUTPUT: 3.72

INPUT: Give the reported log2 fold change of degron read counts for this sequence. FECEICGASFTQKGNLLRHIKL [46F_47E_49E_50I_52G_53A_54S_55F_67L_, Q9UKT9]
OUTPUT: -0.516
